Readings of pIC50 for the listed compounds
biological target: human GSK3 beta (Homo sapiens, UniProt P49841); construct: Recombinant full-length human GSK3 beta (expressed in Sf9 insect cells with an N-terminal His tag); His (N); assay: GSK3 beta enzyme assay (ADP-Glo); settings: ATP 25 μM, read-out: GSK3b IC50
Sequence (P49841 whole entry): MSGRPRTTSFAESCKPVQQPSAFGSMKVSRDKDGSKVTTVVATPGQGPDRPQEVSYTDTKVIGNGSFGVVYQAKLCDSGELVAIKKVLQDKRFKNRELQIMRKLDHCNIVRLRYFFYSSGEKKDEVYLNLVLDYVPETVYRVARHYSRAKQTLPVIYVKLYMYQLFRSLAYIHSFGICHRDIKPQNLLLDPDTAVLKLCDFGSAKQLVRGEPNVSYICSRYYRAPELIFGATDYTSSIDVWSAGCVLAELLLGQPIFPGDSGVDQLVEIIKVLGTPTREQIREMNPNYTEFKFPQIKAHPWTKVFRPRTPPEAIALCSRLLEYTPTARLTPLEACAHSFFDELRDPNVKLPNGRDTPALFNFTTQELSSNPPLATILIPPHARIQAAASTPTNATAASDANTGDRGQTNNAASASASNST
pIC50: −log10 of the molar value.
quantity kind: pIC50

                                    compound  endpoint_result
 0  O=C1NC(N(CC2CC2)c2ccc3ncsc3c2)=N/C1=C\c1ccc2ncsc2c1 [Example 105]           < 5.00
 1  O=C1NC(N(CCO)c2ccccc2)=N/C1=C\c1ccc2c(c1)OCO2 [Example 13]     5.00 to 6.00
 2  Cn1cnc2ccc(NC3=N/C(=C\c4ccc5ncsc5c4)C(=O)N3)cc21 [Example 93]     6.00 to 7.00
 3  O=C1NC(Nc2ccc3sccc3c2)=N/C1=C\c1ccc2ncsc2c1 [Example 101]           < 5.00
 4  O=C1NC(Nc2ccccc2)=N/C1=C\c1cncs1 [Example 15]           < 5.00
 5  Cn1cnc2ccc(/C=C3\N=C(Nc4ccccc4)NC3=O)cc21 [Example 46]     6.00 to 7.00
 6  O=C1NC(Nc2ccc3ncsc3c2)=NC1Cc1ccc2ncsc2c1 (centres unmarked) [Example 102]           < 5.00
 7  O=C1NC(NCc2ccccc2)=N/C1=C\c1ccc2ncsc2c1 [Example 31]     5.00 to 6.00
 8  Cn1ncc2ccc(/C=C3\N=C(Nc4ccc5ncsc5c4)NC3=O)cc21 [Example 80]           < 5.00
 9  CN(C1=N/C(=C\c2ccc3ncccc3c2)C(=O)N1)c1ccc2ncsc2c1 [Example 85]     5.00 to 6.00
10  CN1C(=O)/C(=C/c2ccc3ncsc3c2)N=C1Nc1ccc2ncsc2c1 [Example 88]           < 5.00
11  CC(C)NC1=N/C(=C\c2ccc3ncsc3c2)C(=O)N1C [Example 45]     5.00 to 6.00
12  CC(C)Nc1nc2ccc(NC3=N/C(=C\c4ccc5ncsc5c4)C(=O)N3)cc2s1 [Example 100]     6.00 to 7.00
13  COc1ccc(NC2=N/C(=C\c3ccc4ncsc4c3)C(=O)N2)cc1 [Example 25]           < 5.00

* * *

target: human GSK3 beta (Homo sapiens, UniProt P49841); construct: Recombinant full-length human GSK3 beta (expressed in Sf9 insect cells with an N-terminal His tag); His (N); experiment: GSK3 beta enzyme assay (ADP-Glo); conditions: ATP 25 μM, read-out: GSK3b IC50
pIC50: −log10 of the molar value.
quantity kind: pIC50

>>> print(df.to_string())
                                test_smiles  quantity_kind  endpoint_result
0  O=C1NC(Nc2ccc3ncsc3c2)=N/C1=C\c1ccc2ncsc2c1          pIC50           < 5.00
1  O=C1NC(Nc2ccc3nccnc3c2)=N/C1=C\c1ccc2ncsc2c1          pIC50     6.00 to 7.00
2  O=C1NC(Nc2ccc(Cl)cc2)=N/C1=C\c1ccc2ncsc2c1          pIC50           < 5.00
3  Cn1cnc2cc(/C=C3\N=C(Nc4ccccc4)NC3=O)ccc21          pIC50           < 5.00
4  Cn1ncc2ccc(/C=C3\N=C(Nc4ccccc4)NC3=O)cc21          pIC50           < 5.00
